EXPERIMENTAL_TARGET: T1, cynomolgus uPAR (recombinant) (cynomolgus monkey, UniProt Q9GK78 23-303, limits assumed)
T1 construct: also called cyno uPAR; AF647-cyno uPAR
T1 sequence (looked up): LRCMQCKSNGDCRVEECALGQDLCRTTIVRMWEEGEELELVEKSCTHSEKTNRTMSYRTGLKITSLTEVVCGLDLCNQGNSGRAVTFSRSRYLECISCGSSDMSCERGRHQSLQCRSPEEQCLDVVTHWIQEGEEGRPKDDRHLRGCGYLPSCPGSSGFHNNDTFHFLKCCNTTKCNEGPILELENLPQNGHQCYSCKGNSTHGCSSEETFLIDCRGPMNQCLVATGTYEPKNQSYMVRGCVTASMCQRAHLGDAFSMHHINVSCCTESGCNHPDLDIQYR
TEST_NAME: BLI (Octet HTX)
Method: Kinetic constant ranges for Octet HTX were between 1 mM to 10 pM.
EXPERIMENTAL_READOUT: Kd (nM)
Kindly answer with a numeric value in nM, unit omitted.

Ask: Quick one: Kd for 3159 HC2 + LC2 (humanized) (antibody, V domains shown, detected with anti-human Fc antibody) VH: QVTLKESGPVLVKPTETLTLTCTVSGFSLSTSGMGVSWIRQPPGKGLEWLAHIYWDDDKRYSPSLKSRLTISKDASKDQVVLTMTNMDTVDTATYYCGRRVRNYFSGTSYWYFDVWGTGTLVTVSS VL: DVVMTQSPLSLPVTLGQPASISCRSSQNILHRTGNTYLEWFQQRPGQSPRLLIYKVSNRFSGVPDRFSGSGSGTDFTLKISRVEAEDVGVYYCFQGSYVPFTFGQGTKLEIK ?
Reply: 404

The origin of these recorded values is patent US20260116983A1.
